Numbers sourced from PubChem BioAssay (NCI).

Can you tell me TGI for the items I'm about to list?
tested on: OVCAR-4 ovarian; assay: NCI tumour cell line growth inhibition, 48 h
One number for each entry, in µM.

# example entries with known answers
- CC/C(Cc1ccccc1)=C(\c1ccc(OCCN2CCCC2)cc1)c1ccc(OC(=O)NCc2ccccc2)cc1: 3.85
- Cc1c([C@H](C)[C@@H]2NC[C@@H](C)C[C@H]2O)ccc2c1C[C@H]1[C@H]2CC=C2C[C@@H](O)CC[C@@]21C: 40
- CC(C)OC(=S)Nc1ccc(Cl)c(/C=N/OC(C)(C)C)c1: 35.3

Lab note: next compound to report on.
Ask | Which TGI is listed for O=[Se](O)O ?
Reply | 21.1
